The reported numbers originate from the supplement of paper PMC10567573.

# METHOD DESCRIPTION: protein stability index of a GFP-peptide fusion (GPS, HEK-293T) (PSI 1-6); higher = more stable;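 note: 24-mer peptide tiles fused after GFP, lentivirally expressed, FACS-sorted into six equal bins by GFP/DsRed ratio, decoded by Illumina sequencing, PSI is the read-weighted mean bin number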
# REPORTED CONDITIONS: treatment: DMSO; c terminus: a fixed tail appended
PARAMETER MEASURED: protein stability index
// print number alone

{"SEQ STRING": "GMDPERLKAFNMFVRLFVDENLDR [NOL4L]", "protein stability index": 2.1}
{"SEQ STRING": "DSGVQACFNRSREYQLNDSAAYYL [GNAI1]", "protein stability index": 2.8}
{"SEQ STRING": "QEHSNSVGGQDTGATWRTSGLLEE [C18orf25]", "protein stability index": 5.28}
{"SEQ STRING": "RHFGTILNYLRDGSVPLPESTREL [KCTD13]", "protein stability index": 2.78}
{"SEQ STRING": "LVMEGTDDGRLLEYDTVTREVKVL [APMAP]", "protein stability index": 3.5}

Attention now turns to another entry.
Exercise: Consider the sequence APALPPGGTDPHGYHQVPGSAAPG [FOXJ1] and give its recorded protein stability index.
Solution: 5.16

---

Listed here: items and their measured protein stability index.
# METHOD DESCRIPTION: protein stability index of a GFP-peptide fusion (GPS, HEK-293T) (PSI 1-6); higher = more stable
# REPORTED CONDITIONS: treatment: MLN4924 1 uM, 8 h; c terminus: a fixed tail appended
// print number alone

Example cases with answers are listed next.
{"SEQ STRING": "ADQWKSSNKSLVEALGLEAEGAVP [RHOBTB1]", "protein stability index": 4.83}
{"SEQ STRING": "GGKSGELEQEEERLSKEWEDSKRW [CHGA]", "protein stability index": 5.07}
{"SEQ STRING": "SGLRMVPEHRAFGSPFGLEEPQWV [ZFYVE21]", "protein stability index": 2.93}
{"SEQ STRING": "MLSLKKYLTEGLLQFTILLSLIGV [NFE2L1]", "protein stability index": 2.82}
{"SEQ STRING": "KYNHAACFGLQPGCLLPDGSRMMA [NLN]", "protein stability index": 2.55}
{"SEQ STRING": "NKEYIKRLLMSQADKMTAEEVDQM [MYL5]", "protein stability index": 4.48}
{"SEQ STRING": "KRESFLKYKCLLQQLYYTEADYED [IQUB]", "protein stability index": 2.49}
{"SEQ STRING": "ENVKDVPFGFQTVTSDVNKLSSFY [SERPINB5]", "protein stability index": 3.09}

Exercise: Consider the sequence LPIVAIENILSFMSYDEISQLRLV [FBXO28] and give its recorded protein stability index.
Solution: 2.81

Exercise: Consider the sequence KVPRPDALDNESWGFVHPRLLSVP [RETREG3] and give its recorded protein stability index.
Solution: 2.74

Exercise: Consider the sequence DQDLDALMADLVADISEAEQRTIQ [APBB1IP] and give its recorded protein stability index.
Solution: 4.56

Exercise: Consider the sequence VKSHLLDYVMTTLLFSDKNVNSNL [TRIP13] and give its recorded protein stability index.
Solution: 2.79

Exercise: Consider the sequence NNWPPLPSFCPVQPCFFQDISMEI [SCAMP3] and give its recorded protein stability index.
Solution: 2.55

---

# METHOD DESCRIPTION: protein stability index of a GFP-peptide fusion (GPS, HEK-293T) (PSI 1-6); higher = more stable
# REPORTED CONDITIONS: treatment: DMSO; c terminus: a fixed tail appended
PARAMETER MEASURED: protein stability index
// print number alone

Exercise: Consider the sequence ETKKVLGLQDTITAELVVIEDAAE [PALM] and give its recorded protein stability index.
Solution: 4.92

Exercise: Consider the sequence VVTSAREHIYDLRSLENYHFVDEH [CLINT1] and give its recorded protein stability index.
Solution: 2.85

Exercise: Consider the sequence RYLEAEFKKGNRYIRCQKEVGKSF [SMG5] and give its recorded protein stability index.
Solution: 2.57

Exercise: Consider the sequence AHRAILVARCEVMAAMFNGNYMEA [RHOBTB3] and give its recorded protein stability index.
Solution: 2.54

Exercise: Consider the sequence NILLKNLVTIARKASLWQFLSSEK [TRIM43] and give its recorded protein stability index.
Solution: 2.17

---

# METHOD DESCRIPTION: protein stability index of a GFP-peptide fusion (GPS, HEK-293T) (PSI 1-6); higher = more stable
# REPORTED CONDITIONS: treatment: DMSO; c terminus: a fixed tail appended
Is protein stability index at least 3? Then Criterion met. If not, Criterion not met.

{"SEQ STRING": "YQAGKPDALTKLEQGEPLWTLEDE [ZNF649]", "GROUP LABEL": "Criterion met"}
{"SEQ STRING": "VFDCLKDGMRNKETLEGREKAFIA [MED27]", "GROUP LABEL": "Criterion met"}
{"SEQ STRING": "EEDSFYRSSYPQQQGLGASYRTES [TBX5]", "GROUP LABEL": "Criterion met"}
{"SEQ STRING": "VNMVDVAKALNRPPTYPTKYFGCE [EIF5]", "GROUP LABEL": "Criterion not met"}
{"SEQ STRING": "ITWIAGAVTKDFKLTDKHETVVSY [ACSBG2]", "GROUP LABEL": "Criterion not met"}
{"SEQ STRING": "PGAYYPYERTLGQYQYERYGAVEL [IRX6]", "GROUP LABEL": "Criterion not met"}
{"SEQ STRING": "AGTSSHGCWAWPLAGLSVGRSSLT [PXN]", "GROUP LABEL": "Criterion not met"}
{"SEQ STRING": "LDSRSTDRVLQWERIDCQGIPPSS [KLHDC2]", "GROUP LABEL": "Criterion met"}

Exercise: State whether the measured protein stability index reaches 3, counting equality as reaching it, for AFQLLRRFVQAEGRRATLQRLVEA [TRADD]
Solution: Criterion not met

Exercise: State whether the measured protein stability index reaches 3, counting equality as reaching it, for STPVCSQKVVVTTPLHRDKTPLHQ [MYBL2]
Solution: Criterion met

Exercise: State whether the measured protein stability index reaches 3, counting equality as reaching it, for GAGDVVLLQRELAQEDSLNKLALQ [LYSMD4]
Solution: Criterion met

Exercise: State whether the measured protein stability index reaches 3, counting equality as reaching it, for FEAPPLQGQAAAPASGSGADSEPA [TRIM55]
Solution: Criterion met

Exercise: State whether the measured protein stability index reaches 3, counting equality as reaching it, for AGSSNLPAPERTMAGLSKEPNTLR [VENTX]
Solution: Criterion met

Exercise: State whether the measured protein stability index reaches 3, counting equality as reaching it, for DYTWTEFDEPFLTRNVQSVSIIDT [TRIP13]
Solution: Criterion met

Exercise: State whether the measured protein stability index reaches 3, counting equality as reaching it, for KIDDLMQEITEQQDIAQEISEAFS [CHMP4C]
Solution: Criterion met

Exercise: State whether the measured protein stability index reaches 3, counting equality as reaching it, for KLFAHSSDLLSEFKKHDADKVGLI [PPEF2]
Solution: Criterion not met

Exercise: State whether the measured protein stability index reaches 3, counting equality as reaching it, for KQNGRVAKVKGHRSQKHKERIRLL [C18orf25]
Solution: Criterion met

Exercise: State whether the measured protein stability index reaches 3, counting equality as reaching it, for LMRHMATHSPQKSHQCAHCEKTFN [PLAGL1]
Solution: Criterion met

Exercise: State whether the measured protein stability index reaches 3, counting equality as reaching it, for PRTSQSEETRVWHRRDGKWQNVHF [CAMK2B]
Solution: Criterion met

Exercise: State whether the measured protein stability index reaches 3, counting equality as reaching it, for RTPRLMPDKESMYYPRVQHYRELL [GDAP1]
Solution: Criterion not met

Exercise: State whether the measured protein stability index reaches 3, counting equality as reaching it, for LRAIDFGTDEEEEEFIEEEDQEEE [TRIM63]
Solution: Criterion met

Exercise: State whether the measured protein stability index reaches 3, counting equality as reaching it, for LQEQHLSSPQGVQLDIASQSLDQE [BCL2L13]
Solution: Criterion met

Exercise: State whether the measured protein stability index reaches 3, counting equality as reaching it, for DFVLEMNTAKSTSRVTAFLDDLSQ [NLN]
Solution: Criterion not met

Exercise: State whether the measured protein stability index reaches 3, counting equality as reaching it, for KYRSYEEFKADAQLLLHNTVIFYG [ZMYND11]
Solution: Criterion not met

Exercise: State whether the measured protein stability index reaches 3, counting equality as reaching it, for KTTLGWKYEQAFESSQKYKEGKYI [YPEL3]
Solution: Criterion not met

Exercise: State whether the measured protein stability index reaches 3, counting equality as reaching it, for ATNSSWVVVFKALVTTHHLMVHGN [SNAP91]
Solution: Criterion met

Exercise: State whether the measured protein stability index reaches 3, counting equality as reaching it, for VRVALDYEAGQVTLHNAQTQEPIF [TRIM15]
Solution: Criterion not met

Exercise: State whether the measured protein stability index reaches 3, counting equality as reaching it, for REAVSQLRELCRLWLRPETHTKEQ [ZNF24]
Solution: Criterion not met
